Target: recombinant guanylate cyclase reporter cell line (Rattus norvegicus)
Construct: expressed in transfected cells
Sequence (P20595 1-619): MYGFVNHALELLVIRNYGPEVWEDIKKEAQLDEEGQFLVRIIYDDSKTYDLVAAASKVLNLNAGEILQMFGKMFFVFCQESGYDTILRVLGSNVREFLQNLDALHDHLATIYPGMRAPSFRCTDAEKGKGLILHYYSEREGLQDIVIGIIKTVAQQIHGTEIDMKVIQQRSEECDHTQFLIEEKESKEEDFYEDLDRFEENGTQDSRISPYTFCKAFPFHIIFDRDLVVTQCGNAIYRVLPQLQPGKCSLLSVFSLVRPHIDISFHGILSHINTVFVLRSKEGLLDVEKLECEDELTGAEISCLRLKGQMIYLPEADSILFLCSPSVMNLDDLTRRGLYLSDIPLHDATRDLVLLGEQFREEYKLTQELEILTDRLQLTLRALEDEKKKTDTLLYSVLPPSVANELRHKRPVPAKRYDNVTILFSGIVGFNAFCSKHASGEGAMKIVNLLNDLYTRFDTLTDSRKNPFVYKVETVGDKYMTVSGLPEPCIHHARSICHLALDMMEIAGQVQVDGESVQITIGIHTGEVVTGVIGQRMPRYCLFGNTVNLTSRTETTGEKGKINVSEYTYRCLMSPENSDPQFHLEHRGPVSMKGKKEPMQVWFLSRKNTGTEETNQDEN
Sequence (P19686 1-690 partner): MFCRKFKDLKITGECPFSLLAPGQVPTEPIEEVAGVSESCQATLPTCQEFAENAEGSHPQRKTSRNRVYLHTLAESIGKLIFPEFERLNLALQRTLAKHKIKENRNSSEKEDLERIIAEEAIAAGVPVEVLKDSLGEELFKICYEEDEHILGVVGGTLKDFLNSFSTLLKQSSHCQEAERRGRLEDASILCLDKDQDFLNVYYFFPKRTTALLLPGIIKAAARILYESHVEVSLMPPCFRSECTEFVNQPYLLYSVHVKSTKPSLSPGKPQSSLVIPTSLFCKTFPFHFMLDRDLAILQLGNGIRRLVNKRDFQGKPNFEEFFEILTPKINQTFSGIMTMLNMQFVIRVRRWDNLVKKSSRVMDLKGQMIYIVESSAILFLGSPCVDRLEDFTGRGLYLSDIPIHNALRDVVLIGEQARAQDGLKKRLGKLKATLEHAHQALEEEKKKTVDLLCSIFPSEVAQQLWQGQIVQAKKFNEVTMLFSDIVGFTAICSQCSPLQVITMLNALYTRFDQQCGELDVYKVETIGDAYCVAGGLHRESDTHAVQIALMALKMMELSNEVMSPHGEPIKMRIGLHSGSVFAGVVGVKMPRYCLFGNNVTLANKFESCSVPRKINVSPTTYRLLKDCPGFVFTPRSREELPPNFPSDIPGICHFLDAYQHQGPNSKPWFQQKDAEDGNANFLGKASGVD
Assay: Effect on a recombinant guanylate cyclase reporter cell line
Format: cell-based
Details: MEC = minimum effective concentration; in some cases mean values from individual determinations; hydrochloride
Counter-ions that a name gives are not always drawn.
Below, each of the molecules is paired with its reported MEC value.
Output spec: scalar in nM, unitless text.

Worked examples follow.
molecule	MEC / nM
O=C(O)c1cnn(C2CCCN(c3cc(Cl)ccc3-c3ccc(N4CCN(CC5CC(F)(F)C5)CC4)cc3)C2)c1C(F)(F)F (single isomer, unassigned) [Example 20, hydrochloride]	1.0
O=C(O)c1cnn(C2CCCN(c3cc(Cl)ccc3-c3ccc(N4CCN(C[C@@H]5C[C@@H]5F)CC4)cc3)C2)c1C(F)(F)F (single isomer, unassigned) [Example 28, hydrochloride]	3.0
O=C(O)c1cnn(C2CCCN(c3cc(Cl)ccc3-c3ccc(N4CCN(CC5CC(F)(F)C5)CC4)cc3)C2)c1C(F)(F)F (single isomer, unassigned) [Example 21, hydrochloride]	3.0

Turning to the following molecule.
Query :: What value of MEC has been recorded for this entry: O=C(O)c1cnn(C2CCCN(c3cc(Cl)ccc3-c3ccc(N4CCN(CC(F)F)CC4)cc3)C2)c1C(F)(F)F (single isomer, unassigned) [Example 12, hydrochloride]
Result :: 1.0
